Sourced from PubChem BioAssay

Some molecules, each annotated with its measured composite z-score.
Biological target: Torsin-1A-interacting protein 1 (Homo sapiens) (UniProt Q5JTV8)
Sequence (Q5JTV8 whole entry, looked up): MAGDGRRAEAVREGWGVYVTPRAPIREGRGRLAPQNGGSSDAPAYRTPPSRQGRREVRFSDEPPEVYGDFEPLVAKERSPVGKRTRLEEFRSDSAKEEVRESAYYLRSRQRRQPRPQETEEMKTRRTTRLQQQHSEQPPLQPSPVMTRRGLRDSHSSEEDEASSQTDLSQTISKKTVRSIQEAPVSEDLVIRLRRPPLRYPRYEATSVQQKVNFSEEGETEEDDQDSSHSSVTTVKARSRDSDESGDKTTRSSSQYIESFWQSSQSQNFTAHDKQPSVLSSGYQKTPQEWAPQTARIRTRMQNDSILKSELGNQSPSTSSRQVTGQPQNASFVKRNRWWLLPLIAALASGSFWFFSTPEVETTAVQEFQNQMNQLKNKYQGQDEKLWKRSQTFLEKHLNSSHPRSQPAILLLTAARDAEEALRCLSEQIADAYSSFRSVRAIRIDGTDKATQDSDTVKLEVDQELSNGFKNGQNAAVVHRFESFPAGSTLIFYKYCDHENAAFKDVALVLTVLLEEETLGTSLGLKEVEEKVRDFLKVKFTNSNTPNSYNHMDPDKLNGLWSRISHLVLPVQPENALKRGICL
Experiment: compound microarray binding of lysate hLAP1 – cell lysate, small-molecule microarray, COS7 lysate, 635/667 nm fluorescence, primary screen (AID 1116)
Details: 635 nm fluorescence, higher = more signal
Number, no unit, nothing else.

# annotated cases, reported composite z-score shown
MOLECULE | TEST_RESULT
C=C(/C(=C/C[C@@H](OC(=O)c1ccncc1)c1cccc(OCCO)c1)c1cc(C(=O)OC)ccc1OC)C(C)C | 1.11
COc1ccc(C#Cc2ccc3c(c2)[C@]2(C(=O)N3)[C@H](c3ccc(OCCO)cc3)N3[C@H](c4ccccc4)[C@H](c4ccccc4)OC(=O)[C@H]3[C@@H]2C(=O)N2CCN(c3ncccn3)CC2)cc1 | 0.45
CC(=O)NCCCC[C@@H]1NC(=O)[C@@H]2C[C@H](C(=O)NCCCC[N+](C)(C)C)[C@H](c3cccc(OCCO)c3)N2C1=O | 0.714
O=C1c2ccccc2C(=O)C2CC([C@H]3Oc4ccccc4S(=O)(=O)N4CCC[C@@H]34)=CCC12 (some centres undefined) | 0.123
COCCOC(=O)N1C(=O)[C@@]2(c3cc(C#CCNC(N)=O)ccc31)[C@H](c1ccc(OCCO)cc1)N1[C@H](c3ccccc3)[C@H](c3ccccc3)OC(=O)[C@H]1[C@@H]2C(=O)N1CCN(c2ncccn2)CC1 | 0.895
COC(=O)[C@@]1(Cc2ccccc2)[C@H]2c3cc(C(=O)N4CCCC4)n(CCO)c3C[C@H]2CN1C(=O)c1ccccc1 | 3.95
CCC[C@@H]1C[C@@]1(CCC)[C@@H](NC(=O)c1cccs1)c1ccc(Cl)cc1 | -0.506
[N-]=[N+]=Nc1ccccc1C[C@]1(C(=O)NCCN2CCOCC2)N=C(c2ccc(OCCCO)cc2)O[C@H]1c1ccccc1N=[N+]=[N-] | 1.51
C=CC[C@]1(C(=O)NCC(O)CO)N=C(c2ccc(OCCCO)cc2)O[C@H]1c1ccccc1N=[N+]=[N-] (some centres undefined) | 2.75
Cc1ccc(S[C@]2(C(=O)O)CC(=O)N(Cc3ccccc3C(F)(F)F)[C@@H]2c2ccc(CO)cc2)cc1 | 0.914

Prompt line: Any idea what composite z-score came out for COc1ccc([Si](C)(C)[C@@H]2[C@@H](CC(=O)N3Cc4ccccc4C[C@H]3CO)O[C@]3(C(=O)N(Cc4cccc(N5CCCCC5=O)c4)c4ccccc43)[C@H]2C)cc1 on Torsin-1A-interacting protein 1 (Homo sapiens) (UniProt Q5JTV8)?
Response line: 1.11

Prompt line: Please tell me: composite z-score of COc1cccc(C)c1NC(=O)O[C@H]1[C@H](OC(=O)Nc2ccccc2)[C@H](OC(=O)Nc2ccccc2)[C@@H](OC)O[C@@H]1CO , system Torsin-1A-interacting protein 1 (Homo sapiens) (UniProt Q5JTV8)?
Response line: 0.0722

Prompt line: Item COC(=O)c1c(CC[C@@H](CO)NC(=O)N[C@@H](C)Cn2cc(C3(O)CCCC3)nn2)oc(C(C)=O)c1C(=O)OC with Torsin-1A-interacting protein 1 (Homo sapiens) (UniProt Q5JTV8) - composite z-score?
Response line: 0.711

Prompt line: For Torsin-1A-interacting protein 1 (Homo sapiens) (UniProt Q5JTV8), provide composite z-score of CO[C@H]1O[C@H](CO)[C@@H](OC(=O)c2ccc(Br)cc2)[C@@H]2OC(=O)[C@H](Cc3cccc(Br)c3)C/C=C/C[C@@H](Cc3cccc(Br)c3)C(=O)O[C@@H]12 please.
Response line: 0.323

Prompt line: composite z-score of Cc1cc(C)c(C(O)C2C=CC3C(=O)N(c4ccccc4)C(=O)C3N2Nc2ccc([N+](=O)[O-])cc2)c(C)c1 (centres undefined) on Torsin-1A-interacting protein 1 (Homo sapiens) (UniProt Q5JTV8)?
Response line: 1.29

Prompt line: Recorded composite z-score for CC(C)CN1C(=O)[C@@]2(Cc3ccccc31)c1ccccc1C(=O)N(Cc1ccccc1)[C@H]2c1ccc(CO)cc1 with Torsin-1A-interacting protein 1 (Homo sapiens) (UniProt Q5JTV8), please?
Response line: -0.845

Prompt line: API: value(readout= composite z-score, system= Torsin-1A-interacting protein 1 (Homo sapiens) (UniProt Q5JTV8), query= C=CC[C@@]1(C(=O)NCCN2CCOCC2)N=C(c2ccc(OCCCO)cc2)O[C@@H]1c1ccccc1 )
Response line: 1.06

Prompt line: Lab note: need composite z-score with Torsin-1A-interacting protein 1 (Homo sapiens) (UniProt Q5JTV8) for entry CC(C)(C)OC(=O)CC[C@]1(C(=O)N2CCCCC2)N=C(c2ccc(OCCCO)cc2)O[C@H]1c1ccccc1CN=[N+]=[N-] , please look it up.
Response line: 2.52

Prompt line: Under Torsin-1A-interacting protein 1 (Homo sapiens) (UniProt Q5JTV8): composite z-score value of C=C[C@@H](O)[C@H]1CC(c2ccccc2)=NO1 ?
Response line: 0.0222

Prompt line: Find the measured composite z-score: item [N-]=[N+]=Nc1ccccc1[C@H]1OC(c2ccc(OCCCO)cc2)=N[C@@]1(Cc1ccccc1)C(=O)NCc1ccccc1 , target or system Torsin-1A-interacting protein 1 (Homo sapiens) (UniProt Q5JTV8).
Response line: 0.832

Prompt line: Requested read-out composite z-score, target or system Torsin-1A-interacting protein 1 (Homo sapiens) (UniProt Q5JTV8), entry COCC1=C([C@H](O)CCc2ccccc2)[C@H](CO)[C@@H]2C(=O)N(C)C(=O)[C@@H]2C1
Response line: 0.478
